Species: Rattus norvegicus
assay.text: Open TG-GATES - Regimen: Single
Assay type: toxicity, organism-based, Sprague-Dawley
Set-up: regimen Single, gender Male, age 6 weeks
experimental.context: in vivo, po, 0 mg/kg, 3 h, tissue Plasma, route gavage, dose level Control
readout.kind: TC (mg/dL)

compound	units.label	reported.measurement
CN1C(C(=O)Nc2ccccn2)=C(O)c2sc(Cl)cc2S1(=O)=O	mg/dL	71.2
CCOC(=O)[C@H](CCc1ccccc1)N[C@@H](C)C(=O)N1CCC[C@H]1C(=O)O	mg/dL	77
C1CCC(C(CC2CCCCN2)C2CCCCC2)CC1 (centres undefined)	mg/dL	79.8
COc1cc([C@@H]2c3cc4c(cc3[C@@H](O[C@@H]3O[C@@H]5CO[C@@H](C)O[C@H]5[C@H](O)[C@H]3O)[C@H]3COC(=O)[C@H]23)OCO4)cc(OC)c1O [ETOPOSIDE]	mg/dL	71.8
